- Tested on: 786-0 renal
- assay_remarks: NCI tumour cell line growth inhibition, 48 h; in the data active = GI50 below about 0.43 µM; inactive = the rest
I would appreciate it if you answered using one of these outcomes: 1 (active), -1 (inactive)

Record excerpt, results attached:
[[record]]
smiles_string = "C=CC(=O)OCCCS(=O)(=O)[O-].C=CC(=O)OCCCS(=O)(=O)[O-].NC1CCCCC1N.[Pt+4]"
cat = -1

[[record]]
smiles_string = "NC1=CC(=O)C(=O)c2ccccc21"
cat = -1

[[record]]
smiles_string = "COc1ccc(/C=C\\c2cc(OC)c(OC)c(OC)c2)cc1N/C=C\\C(=O)c1c[nH]c2ccccc12"
cat = 1

[[record]]
smiles_string = "N#Cc1cc2c(=S)[nH]c(=S)[nH]c2nc1SCc1ccccc1"
cat = -1

[[record]]
smiles_string = "CCSc1nc(N)c(C#N)c(-c2ccc(OC)c(OC)c2)c1C#N"
cat = -1

[[record]]
smiles_string = "C=C(C)[C@@H]1CC[C@]2(COC(=O)c3ccccc3C(=O)O)CC[C@]3(C)[C@H](CC[C@@H]4[C@@]5(C)CC[C@H](OC(=O)c6ccccc6C(=O)O)C(C)(C)[C@@H]5CC[C@]43C)[C@@H]12"
cat = -1

[[record]]
smiles_string = "COc1ccc(C#CC2=C(Br)C(=O)OC2)cc1"
cat = -1

[[record]]
smiles_string = "Nc1nc(N)c2cc(S(=O)(=O)c3ccccc3)ccc2n1"
cat = -1


Request: What is the recorded call for this compound in the test? CN1CCC(n2cnc(-c3ccc(F)cc3)c2-c2ccnc(Nc3ccccc3)n2)CC1
Response: -1

Request: Hey, what did the test say about CCN1C(=O)N[C@H]2[C@@H]3NC(=O)c4ccc(Cl)n4[C@@H]3C[C@]21O ?
Response: -1

Request: Record lookup: outcome of this test for O=C(/C=C/c1cc(O)ccc1O)c1ccc(Cl)cc1 ?
Response: -1
